Target: T1, full-length human Nectin-4 on cells (human, UniProt Q96NY8 32-510)
T1 sequence: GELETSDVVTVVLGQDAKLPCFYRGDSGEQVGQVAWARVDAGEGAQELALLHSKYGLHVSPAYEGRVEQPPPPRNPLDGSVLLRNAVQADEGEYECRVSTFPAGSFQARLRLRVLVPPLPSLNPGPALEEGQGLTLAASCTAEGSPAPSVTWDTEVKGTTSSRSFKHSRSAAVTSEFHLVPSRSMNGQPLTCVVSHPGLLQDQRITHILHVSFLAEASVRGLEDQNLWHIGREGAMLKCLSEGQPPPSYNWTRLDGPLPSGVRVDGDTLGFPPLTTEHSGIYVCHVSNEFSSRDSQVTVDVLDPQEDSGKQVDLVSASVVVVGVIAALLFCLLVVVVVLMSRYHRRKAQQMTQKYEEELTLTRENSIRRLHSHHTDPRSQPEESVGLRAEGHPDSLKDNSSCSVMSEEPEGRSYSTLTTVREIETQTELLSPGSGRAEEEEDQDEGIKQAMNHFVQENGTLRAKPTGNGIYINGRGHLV
Experiment: cell-based or functional assay
Below is a list of entries, each paired with its recorded Endocytosis EC50 (cell killing with MMAF-conjugated Fab anti-hFc), SKBR3 cells value.
Dear colleague, please return just the value in nM, with no unit written.

Some solved entries appear below for comparison.
binder | test result
N4_mAb 6 (antibody, human IgG1, V domains shown, Tested as chimera (murine variable regions, human IgG1/kappa constants); not shown: human IgG1 constant region (Uniprot P01857); human Kappa light chain constant region (UniProt P01834)) VH: QVQLQQSGPELVKPGASVRISCKASGYTFTTYYIHWVKQRPGQGLEWIGWIYPGNVNTKYTENFKDKATLTADKSSSTAYMQLSSLTSEDSAVYFCARGLYYFDFWGQGTTLTVSS VL: SIVMTQTPKFLLVSAGDRVTITCKASQSVNNDVAWYQQKPGQSPKLLIYYASNRDTGVPDRFTGSGFGTDFTFTISSVQAEDLAVYFCQQDYSSPYTFGGGTKLEIK | 1.78
N4_mAb 7 (antibody, human IgG1, V domains shown, Tested as chimera (murine variable regions, human IgG1/kappa constants); not shown: human IgG1 constant region (Uniprot P01857); human Kappa light chain constant region (UniProt P01834)) VH: QVQLQQSGPELVKPGASVKMSCKASGYTFTTYYIHWVKQRPGQGLEWIGWIYPGNAGIKSNEKFKGKTTLTADKSSSTAYMLLSSLTSEDSAIYFCARGVYFFDYWGQGTTLTVSS VL: SIVMTQTPKFLLVSAGDRVTITCKASQSVNNDVSWFQQKPGQSPKLLIYYASNRYTGVPDRFSGSGYGTDFTFTITTVQAEDLAVYFCQQDYSSPYTFGGGTKLEIK | 0.61
N4_mAb 3 (antibody, human IgG1, V domains shown, Tested as chimera (human IgG1/kappa constants); not shown: human IgG1 constant region (Uniprot P01857); human Kappa light chain constant region (UniProt P01834)) VH: EVQLQQSGAELVKPGASVKLSCTVSGFNIKDTYMHWVKQRPEQGLEWIGRIDPANGNTKYDPKFQGKATIIADKASNTAYLQLSSLTSEDAAVYYCAHYYGSSYFAMDCWGQGTSVTVSS VL: DIVMTQSHKFMSTSVGDRVSITCKASQDVSTAVAWYQQKPGQSPKLLIYWASTRHTGVPDRFTGSGSGTDYTLTISSVQTEDLALYYCQQHYSTPLTFGAGTKLELK | 0.63
N4_mAb 2 (antibody, human IgG1, V domains shown, Tested as chimera (human IgG1/kappa constants); not shown: human IgG1 constant region (Uniprot P01857); human Kappa light chain constant region (UniProt P01834)) VH: QVQLKQSGPNLVQPSQSLSITCTVSGFSLTTYGAHWVRQSPGKGLEWLGVIWRGGSTDYNAAFMSRLSITKDNSKSQVFFKMNSLQADDTAIYYCAKIGYDGYAMDNWGQGTSVTVSS VL: DFQVTQSPASLSASVGETVTITCRTSENIHNYLAWYQQKQGKSPQLLVYNAKTLADGVPSRFSGSGSGTQYSLKINSLQPEDFGTYYCQHFWSSPWTFGGGTKLEIK | 0.74
N4_mAb 1 (antibody, human IgG1, V domains shown, Tested as chimera (murine variable regions, human IgG1/kappa constants); not shown: human IgG1 constant region (Uniprot P01857); human Kappa light chain constant region (UniProt P01834)) VH: QVQLKQSGPGLVQPSQSLSITCTVSGFSLTNYGVNWVRQPPGKGLEWLGVIWSGGSTDYNAAFISRLSISKDISKSQVFFKMNSLQADDTAKYYCAREGYDGYAMDYWGQGTSVTVSS VL: DIQMTQSPASLSVSVGETVTITCRASENIFSSLAWYQQKQGKSPQLLVYGATNLADGVPSRFSGSGSGTQYSLKINSLQSEDFGTYWCQHFWGNPWTFGGGTKLEIK | 2.14
N4_mAb 5 (antibody, human IgG1, V domains shown, Tested as chimera (human IgG1/kappa constants); not shown: human IgG1 constant region (Uniprot P01857); human Kappa light chain constant region (UniProt P01834)) VH: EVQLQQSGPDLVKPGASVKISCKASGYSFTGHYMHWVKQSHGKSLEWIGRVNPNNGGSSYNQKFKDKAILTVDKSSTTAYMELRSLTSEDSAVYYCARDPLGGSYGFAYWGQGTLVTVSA VL: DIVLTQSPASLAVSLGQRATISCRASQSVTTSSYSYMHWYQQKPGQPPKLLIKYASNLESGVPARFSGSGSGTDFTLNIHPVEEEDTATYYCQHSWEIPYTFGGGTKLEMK | 0.85

Next binder, Endocytosis EC50 (cell killing with MMAF-conjugated Fab anti-hFc), SKBR3 cells to be filled in.
Supply measured Endocytosis EC50 (cell killing with MMAF-conjugated Fab anti-hFc), SKBR3 cells of N4_mAb 8 (antibody, human IgG1, V domains shown, Tested as chimera (murine variable regions, human IgG1/kappa constants); not shown: human IgG1 constant region (Uniprot P01857); human Kappa light chain constant region (UniProt P01834)) VH: QVQLQQSGPVLVKPGASVRISCKASGYTFTSYYIHWVKQRPGQGLEWIGWIYPGNVNTKYNENFRDKATLTADKSSSTSYMQLSSLTSEDSAVYFCARGIYYFDYWGQGTTLTVSS VL: IIVMTQTPKFLLVSAGDRVTITCKASQSVNNDVAWYQEKPGQSPKLLIYYASNRDTGVPDRFTGSGYGTDFTFTISTVQAEDLAVYFCHQDYSSPFTFGSGTKLEIK in your reply.
0.99
